Test system: RAW264.7 cells
PROCEDURE_TEXT: Cell viability (MTT) in the presence of LPS
Format: cell-based
TEST_CONDITIONS: RAW 264.7 cells, 100 ng/mL LPS, 24 h
Reported LD50 (cell viability) values for a set of compounds
Give your result in µM as a bare value.

C=CCCCCCCCCC/C=C1\C(=O)OC(C)[C@@H]1O (some centres unmarked) [Compound 3]
49.3

If you can, please state the reported LD50 (cell viability) value of CCCCCCCCCCC=CC1C(=O)OC(C)C1O (centres unmarked) [Compound 1] . 72.3

If you can, please state the reported LD50 (cell viability) value of C=CCCCCCCCCC/C=C1/C(=O)OC(C)[C@@H]1O (some centres unmarked) [Compound 4] . 67.1
